system: SK-MEL-2 melanoma; assay: NCI-60 one-dose screen, 48 h (100 = growth as untreated, 0 = no growth, -100 = all killed); conditions: 10 µM unless noted
The panel holds about 83,000 compounds, 20% with a hit somewhere; the sample as a whole holds those more often.
condition met means recorded growth is 90% or above; condition not met means it is below 90%.

Some solved entries appear below for comparison.
>  <compound>
CCN(CC)CCN1CC(O)=C(c2nc(-c3ccc(Cl)cc3)cs2)C1=N

>  <group>
condition met

$$$$
>  <compound>
Nc1n[nH]c(-c2cc(Cl)ccc2O)c1-c1ccccc1

>  <group>
condition not met

$$$$

q: API: above_or_equal(metric=growth, cutoff=90%) for item O=[N+]([O-])c1ccc(C2CC(c3ccccc3)=Nc3ccccc3S2)cc1 (centres undefined)
a: condition met

====

Catalogue of growth values
tested on: HCT-15 colon; assay: NCI-60 one-dose screen, 48 h (100 = growth as untreated, 0 = no growth, -100 = all killed); settings: 10 µM unless noted
This is part of a sample that, as a whole, favours compounds with a hit. Of some 83,000 tested, about 20% had one in any assay.
Give just the numeric value; % need not be written.

>  <compound>
C=CCNc1nc(NN2C(=O)c3cccc4cccc(c34)C2=O)nc(-n2cnc3ccccc32)n1

>  <unit-of-measurement>
%

>  <test-result>
66.7

$$$$
>  <compound>
COc1ccc2[nH]c(O)c(/C=c3/cc4c(c(-c5ccc(F)c(OC)c5)n3)=Nc3ccccc3-4)c2c1

>  <unit-of-measurement>
%

>  <test-result>
-24

$$$$
>  <compound>
COc1cc(Cn2ncc3ccc(NC(=O)c4cc5ccccc5oc4=N)cc32)cc(OC)c1OC

>  <unit-of-measurement>
%

>  <test-result>
27.2

$$$$
>  <compound>
CN1CCN(C(=O)c2c3c(n4ccccc24)C(=O)c2ncccc2C3=O)CC1

>  <unit-of-measurement>
%

>  <test-result>
46

$$$$
>  <compound>
CCN(CC)c1ccc(C(=O)c2ccc(N(CC)CC)cc2)cc1

>  <unit-of-measurement>
%

>  <test-result>
27.4

$$$$

q: If you can, please state the reported growth value of COc1cc(/C=N/Nc2ncc(-c3cc4cc5c(cc4o3)OCO5)s2)cc(OC)c1OC .
a: 35.7

q: Returns the measured growth for the input compound. Input: CCn1c(C)nc2cc(C(N)=O)ccc21
a: 92.8

q: Please look up its growth: N#CC1=C(/N=C/c2ccccc2)Oc2c(ccc3ccccc23)C1c1ccccc1 (centres undefined)
a: 16.6

====

test system: SK-OV-3 ovarian; assay: NCI-60 one-dose screen, 48 h; settings: 10 µM unless noted
Compounds without any hit were thinned out: in the full panel of roughly 83,000, 20% have a hit. Activity calls are given as the source filed them. Rule for the calls: active = growth percent below 10; inactive = the rest.
A correct response names exactly one class from active, inactive

Field: example entries. Status: answers known.
>  <compound>
N=C1C(c2nc(-c3ccc(Br)cc3)cs2)=C(O)CN1CC1CCCO1 (stereo not drawn)

>  <group>
inactive

$$$$
>  <compound>
CN1CCN(CC(=O)Nc2nc(-c3cccc(NS(=O)(=O)c4cccc5c(N(C)C)cccc45)c3)cs2)CC1

>  <group>
inactive

$$$$
>  <compound>
COc1cc(C2NC(=O)c3ccccc3N2)ccc1OCCCCCOc1c(OC)cc(C2=NOC(c3cc(OC)c(OC)c(OC)c3)C2)cc1OC (stereo not drawn)

>  <group>
inactive

$$$$
>  <compound>
COc1cccc(-c2nn(-c3ccccc3)cc2-c2ccnc(NCCNC(=O)Nc3ccccc3)c2)c1

>  <group>
inactive

$$$$
>  <compound>
CN(c1ccccc1)c1ccc2c(c1)OCCC21CC1Nc1cnccc1C(=O)O (stereo not drawn)

>  <group>
inactive

$$$$

q: Hi, sorry to bother you, what did the test record for NC(=S)N/N=C/Cc1ccccc1 ?
a: inactive

q: Please indicate how the test categorized N=c1sc(Cc2ccc(Cl)cc2)cn1CC(=O)c1ccc(F)cc1 .
a: inactive
